Cited source for all entries: paper PMC4422293

test name: Cytotoxicity against mammalian cells
Format: cell-based
protocol conditions: human, HeLa cells (ATCC CCL-2.2)
Item-by-item account of CC50 at 72 h
Please reply with the bare figure in µg/mL and do not write the unit itself.

Observe how each entry below is paired with its result.
> print(dat)
                           structure.smiles  experimental.result
1  CC(C)C[n+]1c(/C=C/C=C2/N(C)c3ccccc3C2(C)C)cc(-c2ccccc2)cc1-c1ccccc1.F[B-](F)(F)F                 0.26
2  CC(C)[n+]1c(/C=C/C=C2/N(C)c3ccccc3C2(C)C)cc(-c2ccccc2)cc1-c1ccccc1.F[B-](F)(F)F                 0.33
3  CN1/C(=C/C=C/c2cc(-c3ccccc3)cc(-c3ccccc3)[n+]2C)C(C)(C)c2ccccc21.F[B-](F)(F)F                 0.25
4  CN(C)CC[n+]1c(/C=C/C=C2/N(C)c3ccccc3C2(C)C)cc(-c2ccccc2)cc1-c1ccccc1.F[B-](F)(F)F                 2.25

Turning now to a further compound:
Exam item: Give the measured CC50 at 72 h of "CN1/C(=C/C=C/c2cc(-c3ccccc3)cc(-c3ccccc3)[n+]2CCO)C(C)(C)c2ccccc21.F[B-](F)(F)F" .
Marked response: 0.8

====

MIC tested on Acinetobacter baumannii BAA-1605: recorded values
Please reply with the bare figure in µg/mL and do not write the unit itself.

Observe how each entry below is paired with its result.
> print(dat)
                           structure.smiles  readout.kind  experimental.result
1  CC(C)[n+]1c(/C=C/C=C2/N(C)c3ccccc3C2(C)C)cc(-c2ccccc2)cc1-c1ccccc1.F[B-](F)(F)F           MIC                    8
2  CN1/C(=C/C=C/c2cc(-c3ccccc3)cc(-c3ccccc3)[n+]2CCO)C(C)(C)c2ccccc21.F[B-](F)(F)F           MIC                 20.2

Exam item: Recall the recorded MIC for "CN1/C(=C/C=C/c2cc(-c3ccccc3)cc(-c3ccccc3)[n+]2C)C(C)(C)c2ccccc21.F[B-](F)(F)F" with Acinetobacter baumannii BAA-1605 and state it.
Marked response: 8

Exam item: Recall the recorded MIC for "CN(C)CC[n+]1c(/C=C/C=C2/N(C)c3ccccc3C2(C)C)cc(-c2ccccc2)cc1-c1ccccc1.F[B-](F)(F)F" with Acinetobacter baumannii BAA-1605 and state it.
Marked response: 32

Exam item: Recall the recorded MIC for "CC(C)C[n+]1c(/C=C/C=C2/N(C)c3ccccc3C2(C)C)cc(-c2ccccc2)cc1-c1ccccc1.F[B-](F)(F)F" with Acinetobacter baumannii BAA-1605 and state it.
Marked response: 8

====

System: Enterobacter aerogenes ATCC 13048
test name: MIC by broth dilution
Assay type: cell-based
protocol conditions: Klebsiella aerogenes, ATCC13048
Item-by-item account of MIC

Observe how each entry below is paired with its result.
> print(dat)
                           structure.smiles  experimental.result
1  CN(C)CC[n+]1c(/C=C/C=C2/N(C)c3ccccc3C2(C)C)cc(-c2ccccc2)cc1-c1ccccc1.F[B-](F)(F)F           ≥ 32 µg/mL
2  CC(C)[n+]1c(/C=C/C=C2/N(C)c3ccccc3C2(C)C)cc(-c2ccccc2)cc1-c1ccccc1.F[B-](F)(F)F              8 µg/mL
3  CN1/C(=C/C=C/c2cc(-c3ccccc3)cc(-c3ccccc3)[n+]2C)C(C)(C)c2ccccc21.F[B-](F)(F)F             32 µg/mL
4  CN1/C(=C/C=C/c2cc(-c3ccccc3)cc(-c3ccccc3)[n+]2CCO)C(C)(C)c2ccccc21.F[B-](F)(F)F           ≥ 32 µg/mL

Exam item: Recall the recorded MIC for "CC(C)C[n+]1c(/C=C/C=C2/N(C)c3ccccc3C2(C)C)cc(-c2ccccc2)cc1-c1ccccc1.F[B-](F)(F)F" with Enterobacter aerogenes ATCC 13048 and state it.
Marked response: 32 µg/mL

====

test name: Surface plasmon resonance binding to immobilized 3-Lipid II
protocol conditions: read-out: Lipid II binding Kd
readout kind: pKd
Just the number, please; pKd means minus log10 of the concentration in mol/L.

Exam item: Give the measured pKd of Cc1cc(-c2ccccc2)cc(-c2ccccc2)[n+]1C [Z56760026, 1,2-Dimethyl-4,6-diphenylpyridin-1-ium] .
Marked response: 4.43

====

test name: Surface plasmon resonance binding to immobilized 3-Lipid II
protocol conditions: read-out: Lipid II binding (Kd); Table 4; averages of three replicate assays
readout kind: log10(Kd) (log10 of the value in nM)
Log scale reminder: Kd in nM, then log10 taken.

Observe how each entry below is paired with its result.
> print(dat)
                                   molecule  experimental.result
1  CN1/C(=C/C=C/c2cc(-c3ccccc3)cc(-c3ccccc3)[n+]2CCO)C(C)(C)c2ccccc21.F[B-](F)(F)F [SF-5-332]                 3.64
2  CN(C)CC[n+]1c(/C=C/C=C2/N(C)c3ccccc3C2(C)C)cc(-c2ccccc2)cc1-c1ccccc1.F[B-](F)(F)F [SF-5-334]                 3.28
3  CN1/C(=C/C=C/c2cc(-c3ccccc3)cc(-c3ccccc3)[n+]2C)C(C)(C)c2ccccc21.F[B-](F)(F)F [SF-5-219]                 3.87

Exam item: Give the measured log10(Kd) of CC(C)C[n+]1c(/C=C/C=C2/N(C)c3ccccc3C2(C)C)cc(-c2ccccc2)cc1-c1ccccc1.F[B-](F)(F)F [SF-5-331] .
Marked response: 2.53

Exam item: Give the measured log10(Kd) of CC(C)[n+]1c(/C=C/C=C2/N(C)c3ccccc3C2(C)C)cc(-c2ccccc2)cc1-c1ccccc1.F[B-](F)(F)F [SF-5-330] .
Marked response: 2.73
